# tested.target: SARS-CoV-2 Receptor Binding Domain (RBD) protein (SARS-CoV-2)
# assay.method.text: SPR (Carterra LSA), scFv captured via anti-V5, RBD as analyte
pKd: −log10 of the molar value.
value.kind: pKd

INSERT INTO measurements (binder, data_value) VALUES
  ('COVID19_P24_A11 (scFv, V domains shown) VH: QVQLVQSGAEVKKPGASVKVSCKASGYTFTENEMHWVRQAPGQGLEWMGIINPSGGSTSYAQKFQGRVTMTRDTSTSTVYMELSSLRSEDTAVYYCARDLMDIVVVPWLGGMDVWGQGTTVTVSS VL: DIQMTQSPSSLSASVGDRVTITCRASQAITNYLAWYQQKPGKAPKLLIYAASSLQSGVPSRFSGSGSGTDFTLTISSLQPEDFATYYCQQYYSYPPTFGQGTKLEIKR', '> 7.30'),
  ('COVID19_P23_F10 (scFv, V domains shown) VH: QVQLVQSGAEVKKPGASVKVSCKASGDTFSNYGISWVRQAPGQGLEWMGWMNPNSGGTNYAQKFQGRVTMTRDTSTSTVYMELSSLRSEDTAVYYCAIGTTVVTPFGYWGQGTLVNVSS VL: EIVMTQSPATLSVSPGERATLSCRASESVSSRYLAWYQQKPGQAPRLLIYGASTRATGIPARFSGSGSGTEFTLTISSLQSEDFAVYYCQQGYKNPPTFGQGTKVEIKR', '> 7.30'),
  ('COVID19_P11_H02 (scFv, V domains shown) VH: QVQLVQSGAEVKKPGASVKVSCKASGGTFTSYHMHWVRQAPGQGLEWMGWMNPNSGNTGYALKFQGRVTMTRDTSTSTVYMELSSLRSEDTAVYYCASFERFGELVPETFDYWGQGTLVTVSS VL: DIQMTQSPSSLSASVGDRVTITCRASQGIRNDLAWYQQKPGKAPKLLIYAASSLQSGVPSRFSGSGSGTDFTLTISSLQPEDFATYYCQQSYSTPPTFGQGTKLEIKR', '> 7.30');
